PROTOCOL: Bioavailability in mouse at 20 mg/kg, ip
Type: ADME, organism-based
CONDITION_LABEL: in vivo

MOL: O=c1cc(N2CCOCC2)oc2c1ccc1ccccc12
bioavailability, %: 20

----------
PROTOCOL: Inhibition of Cdc28p
MEASURED_METRIC: IC50

MOL: CC(C)n1cnc2/c(=N/c3cccc(Cl)c3)nc(NCCO)[nH]c21
OBSERVED_RESULT: 7 µM

----------
Entries with their measured ΔTm, system Ribosomal protein S6 kinase alpha-3 (Homo sapiens):

COMPOUND: NC1=N/C(=C2/CCNC(=O)c3[nH]ccc32)C(=O)N1
ΔTm: 6.4 °C
//
COMPOUND: Oc1ccc(-c2nc(-c3ccc(F)cc3)c(-c3ccncc3)[nH]2)cc1
ΔTm: 0.3 °C
//
COMPOUND: Cc1ccc(NC(=O)c2cccc(N(C)C)c2)cc1NC(=O)c1ccc(O)cc1
ΔTm: -0.1 °C
//
COMPOUND: CN1CCc2[nH]c(=S)c(C#N)c(-c3cccs3)c2C1
ΔTm: 0.9 °C
//
COMPOUND: COc1ccc2c(c[n+](C)c3c4cc5c(cc4ccc23)OCO5)c1OC [CHELERYTHRINE CHLORIDE]
ΔTm: -0.3 °C
